Biological target: UniProt:Q05941
Assay: Inhibition of [3H]-methyllycaconitine binding to rat brain membranes
Settings: [3H]-methyllycaconitine displacement, rat brain membranes (hippocampus or whole brain); Ki=IC50/(1+L/KD); hydrochloride
Counter-ions that a name gives are not always drawn.
QUANTITY NAME: Ki
Answer format: number, then unit.

The recorded Ki for entry COc1ccccc1-c1cccc2cc(C(=O)N[C@H]3CN4CCC3CC4)oc12 [Example 102, hydrochloride] equals 0.062 µM

====

Target: α7 nAChR (Rattus norvegicus (Rat), UniProt Q05941)
Sequence (Q05941 23-502): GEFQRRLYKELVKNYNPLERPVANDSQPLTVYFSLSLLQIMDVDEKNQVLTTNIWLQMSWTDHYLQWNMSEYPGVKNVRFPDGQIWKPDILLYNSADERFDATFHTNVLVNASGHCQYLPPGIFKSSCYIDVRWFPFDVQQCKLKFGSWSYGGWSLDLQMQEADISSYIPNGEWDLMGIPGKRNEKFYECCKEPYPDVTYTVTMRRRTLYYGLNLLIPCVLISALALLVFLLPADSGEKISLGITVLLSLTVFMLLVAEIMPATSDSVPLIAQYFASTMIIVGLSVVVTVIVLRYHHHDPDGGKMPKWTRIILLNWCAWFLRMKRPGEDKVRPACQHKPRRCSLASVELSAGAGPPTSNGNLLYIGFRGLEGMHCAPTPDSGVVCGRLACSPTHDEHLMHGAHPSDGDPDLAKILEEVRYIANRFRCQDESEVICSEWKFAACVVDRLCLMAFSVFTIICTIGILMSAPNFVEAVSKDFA
Test: Inhibition of [3H]-methyllycaconitine binding to rat brain membranes
Details: [3H]-methyllycaconitine displacement, rat brain membranes (hippocampus or whole brain); Ki=IC50/(1+L/KD)
Where a name gives a salt, the structure may show the parent alone.
QUANTITY NAME: pKi
API: returns pKi as number; meaning -log10 of concentration in mol/L.

Observed pKi, α7 nAChR (Rattus norvegicus (Rat), UniProt Q05941), COc1ccccc1-c1cccc2cc(C(=O)N[C@H]3CN4CCC3CC4)oc12 : 7.59

More entries:
Short answer on α7 nAChR (Rattus norvegicus (Rat), UniProt Q05941) for O=C(N[C@H]1CN2CCC1CC2)c1cc2cccc(-c3ccc(N4CCOCC4)cc3)c2s1 [Example 19, hydrochloride] , pKi: 7.70

Assay α7 nAChR (Rattus norvegicus (Rat), UniProt Q05941), sample O=C(N[C@H]1CN2CCC1CC2)c1cc2cccc(-c3ccc(CO)cc3)c2s1 [Example 20, hydrochloride] , pKi read: 8.80

Measured on α7 nAChR (Rattus norvegicus (Rat), UniProt Q05941), O=C(N[C@H]1CN2CCC1CC2)c1cc2cccc(-c3ccc(N4CCOCC4=O)cc3)c2o1 [Example 90, hydrochloride] has a documented pKi of 7.85

====

Molecular target: α7 nAChR (Rattus norvegicus (Rat), UniProt Q05941)
Test: Inhibition of [3H]-methyllycaconitine binding to rat brain membranes
Conditions: [3H]-methyllycaconitine displacement, rat brain membranes (hippocampus or whole brain); Ki=IC50/(1+L/KD)
Counter-ions that a name gives are not always drawn.
QUANTITY NAME: pKi
Remember, pKi is on a log scale: it is -log10 of the molar concentration.

The molecule identified as O=C(O)c1cccc(-c2cccc3cc(C(=O)N[C@H]4CN5CCC4CC5)oc23)c1 [Example 149, hydrochloride] registered its pKi at 7.01

Kindly note the recorded pKi for O=C(N[C@H]1CN2CCC1CC2)c1cc2ccc(-c3ccc(CO)cc3)cc2o1 , which is 7.22

The molecule identified as O=C(N[C@H]1CN2CCC1CC2)c1cc2ccc(-c3ccc(N4CCOCC4)cc3)cc2o1 registered its pKi at 7.62

The reported pKi of the molecule CCNC(=O)Nc1cccc(-c2cccc3cc(C(=O)N[C@H]4CN5CCC4CC5)oc23)c1 [Example 108, hydrochloride] was 7.77

For this molecule ( CNC(=O)NCc1ccccc1-c1cccc2cc(C(=O)N[C@H]3CN4CCC3CC4)oc12 [Example 175, hydrochloride] ), measured pKi is 8.08

---
Record O=C(N[C@H]1CN2CCC1CC2)c1cc2cccc(-c3ccccc3CO)c2o1 [Example 150, hydrochloride] . Reported pKi: 7.46

Lab note: measured pKi of COc1ccc(OC)c(-c2cccc3cc(C(=O)N[C@H]4CN5CCC4CC5)oc23)c1 [Example 151, hydrochloride] was 7.06

====

Biological target: α7 nAChR (Rattus norvegicus (Rat))
Assay: Inhibition of [3H]-methyllycaconitine binding to rat brain membranes
Settings: [3H]-methyllycaconitine displacement, rat brain membranes (hippocampus or whole brain); Ki=IC50/(1+L/KD)
Structures can show the parent of a compound that is named as a salt.
Reported pKi values follow for various molecules
By convention, pKi is the negative base-10 log of a molar concentration.

Query COc1cccc(-c2cccc3cc(C(=O)N[C@H]4CN5CCC4CC5)sc23)c1 [Example 17, hydrochloride] yields pKi of 7.77

Next:
The measured pKi associated with O=C(N[C@H]1CN2CCC1CC2)c1cc2cccc(-c3cccc(NC(=O)C4CC4)c3)c2o1 [Example 116, hydrochloride] reads 7.77

What the record says about O=C(N[C@H]1CN2CCC1CC2)c1cc2cccc(-c3ccccc3O)c2o1 : pKi is 6.92
